Provide the recorded cytotoxicity at 10 µM for the entries that follow.
Test: Toxicity liver stage against HepG2, at 10uM
Type: cell-based
Design: test concentration 10 uM, cell line HepG2-A16-CD81EGFP
Conditions: human, HepG2-A16-CD81EGFP cells; read-out: INHIBITION
Provide the reading as a plain figure in %.

Prompt: Given the compound N#Cc1cccc(N2CC3(CCN(C(=O)c4ccnnc4)C3)CC2=O)c1 (configuration not stated) , what is its reported cytotoxicity at 10 µM?
Response: 2.64

Prompt: Given the compound O=C(NC1CC2(CCN(CCO)CC2)c2ccccc21)c1ccno1 (configuration not stated) , what is its reported cytotoxicity at 10 µM?
Response: -12.2

Prompt: Given the compound CCC1CCCCN1Cc1ncc(C(C)(C)C)o1 (configuration not stated) , what is its reported cytotoxicity at 10 µM?
Response: -3.48

Prompt: Given the compound `COc1ccc(-c2noc(CN3CCN(c4cnccn4)CC3)n2)cc1` , what is its reported cytotoxicity at 10 µM?
Response: 6.58

Prompt: Given the compound CCCC(C#N)NC(=O)c1sccc1CC (configuration not stated) , what is its reported cytotoxicity at 10 µM?
Response: 12.7

Prompt: Given the compound O=C(CCc1nnc(-c2ccccc2)o1)N1CCCC1c1ccccn1 (configuration not stated) , what is its reported cytotoxicity at 10 µM?
Response: -5.82

Prompt: Given the compound `Fc1ccccc1NCc1nc2n(n1)CCCCC2` , what is its reported cytotoxicity at 10 µM?
Response: 2.02

Prompt: Given the compound `COc1cccc2c(=O)n(CCN3CCNCC3)cnc12` , what is its reported cytotoxicity at 10 µM?
Response: 0.623

Prompt: Given the compound `CN(C)CCOc1ccc(N(C)S(=O)(=O)c2cnn(C)c2)cc1` , what is its reported cytotoxicity at 10 µM?
Response: -13.3

Prompt: Given the compound `Cc1cccc(-c2nc(CN3CCc4c(ncn4C)C3)no2)c1` , what is its reported cytotoxicity at 10 µM?
Response: -9.42

Prompt: Given the compound `Cc1oc(C(=O)O)cc1S(=O)(=O)Nc1ccc(Br)cc1Cl` , what is its reported cytotoxicity at 10 µM?
Response: -5.09

Prompt: Given the compound `Cc1nc(N(C)CCN(C)C)c2cnn(C)c2n1` , what is its reported cytotoxicity at 10 µM?
Response: 4.63

Prompt: Given the compound `CCCS(=O)(=O)NCc1ncc(C)c(OC)c1C` , what is its reported cytotoxicity at 10 µM?
Response: -12.9

Prompt: Given the compound `N#Cc1ccc(CN2CCN(c3cncc(Cl)n3)CC2=O)cc1` , what is its reported cytotoxicity at 10 µM?
Response: 7.55

Prompt: Given the compound `COCCc1noc(CN(C)c2cc(C)ncn2)n1` , what is its reported cytotoxicity at 10 µM?
Response: 11.9

Prompt: Given the compound CC(C)(C)C(O)CN1CCN(CC(=O)NC(C2CC2)C2CC2)CC1 (configuration not stated) , what is its reported cytotoxicity at 10 µM?
Response: 3.51

Prompt: Given the compound COc1ccc(CCCC(=O)N2CCCC(n3cncn3)C2)cc1 (configuration not stated) , what is its reported cytotoxicity at 10 µM?
Response: -6.96

Prompt: Given the compound CN(CC1CCOC1)c1ccc(Br)cn1 (configuration not stated) , what is its reported cytotoxicity at 10 µM?
Response: 8.35

Prompt: Given the compound `Cn1cc(CCNCc2cc(Cl)c3c(c2)OCCO3)cn1` , what is its reported cytotoxicity at 10 µM?
Response: -9.69

Prompt: Given the compound `O=C(COc1coc(CN2CCCC2)cc1=O)NCc1ccccc1Cl` , what is its reported cytotoxicity at 10 µM?
Response: -0.317

Prompt: Given the compound O=C(NCCc1cccs1)N1CCCC2(CCC(=O)N(C3CC3)C2)C1 (configuration not stated) , what is its reported cytotoxicity at 10 µM?
Response: -7.82

Prompt: Given the compound Cc1ccc2nc(C3CCCN3Cc3nnc(C)s3)[nH]c2c1 (configuration not stated) , what is its reported cytotoxicity at 10 µM?
Response: -2.82

Prompt: Given the compound `CNc1nc(CNC(=O)Nc2ccccc2SC)cs1` , what is its reported cytotoxicity at 10 µM?
Response: -7.95

Prompt: Given the compound CC1CCN(S(=O)(=O)NC(C)Cc2ccco2)CC1 (configuration not stated) , what is its reported cytotoxicity at 10 µM?
Response: 3.53

Prompt: Given the compound `CSCCCN1C[C@H](NC(=O)c2cc(C3CC3)on2)[C@@H](C2CC2)C1` , what is its reported cytotoxicity at 10 µM?
Response: 2.72

Prompt: Given the compound O=c1oc2ccccc2n1CCCN1CCCC1c1ccc(O)cc1 (configuration not stated) , what is its reported cytotoxicity at 10 µM?
Response: 7.87

Prompt: Given the compound Cc1ccc(C)c(OC(C)C(=O)NCCNc2cccnc2)c1 (configuration not stated) , what is its reported cytotoxicity at 10 µM?
Response: 1.32

Prompt: Given the compound `Cc1nc(CO[C@@H]2CN(Cc3ccccn3)[C@@H]3COC[C@@H]32)cs1` , what is its reported cytotoxicity at 10 µM?
Response: 5.45

Prompt: Given the compound c1cnc(N2CCC3(CCN(CC4CCOC4)CC3)CC2)nc1 (configuration not stated) , what is its reported cytotoxicity at 10 µM?
Response: -1.22

Prompt: Given the compound `CCNC(=O)N1CCC2(CC1)CCn1c(-c3ccccc3)cnc12` , what is its reported cytotoxicity at 10 µM?
Response: -8.19

Prompt: Given the compound `O=C(NCCSc1ccccc1)[C@H]1CNC[C@H](C(=O)N2CCOCC2)C1` , what is its reported cytotoxicity at 10 µM?
Response: -1.97

Prompt: Given the compound `NC(=O)CCN1CCc2onc(-c3ccccc3F)c2C1` , what is its reported cytotoxicity at 10 µM?
Response: 5.21

Prompt: Given the compound CCOc1ccccc1C(CC(=O)Nc1nc(C)cs1)NC(C)=O (configuration not stated) , what is its reported cytotoxicity at 10 µM?
Response: -10.9

Prompt: Given the compound `Cc1ccc(CN2C[C@H]3CN(CC4CCN(C)CC4)C(=O)[C@H]3C2)s1` , what is its reported cytotoxicity at 10 µM?
Response: 2.5

Prompt: Given the compound `Cc1nnc(N2CC[C@@]3(O)CCNC[C@H]3C2)c2ccccc12` , what is its reported cytotoxicity at 10 µM?
Response: 2.61

Prompt: Given the compound c1cn2c(n1)CN(Cc1ccsc1)CC(Cn1cncn1)C2 (configuration not stated) , what is its reported cytotoxicity at 10 µM?
Response: -74.8

Prompt: Given the compound Cc1cnn(CC2CN(Cc3nc(-c4ccco4)no3)CCO2)c1 (configuration not stated) , what is its reported cytotoxicity at 10 µM?
Response: -20.3

Prompt: Given the compound CC(C)C(CNC(=O)Nc1cn[nH]c1)N1CCOCC1 (configuration not stated) , what is its reported cytotoxicity at 10 µM?
Response: -6.83

Prompt: Given the compound CC1(CNC(=O)NCc2ccsc2)CCCS1 (configuration not stated) , what is its reported cytotoxicity at 10 µM?
Response: 1.82

Prompt: Given the compound `CCn1cnnc1CN(C)Cc1c[nH]nc1-c1ccc(F)cc1` , what is its reported cytotoxicity at 10 µM?
Response: -2.59

Prompt: Given the compound CC(C)c1nccn1C1CCCN(C(=O)c2ccn(C)c(=O)c2)C1 (configuration not stated) , what is its reported cytotoxicity at 10 µM?
Response: 7.35

Prompt: Given the compound CC(=O)N(C)Cc1ncn2c1CN(C(=O)C1CCCO1)CCC2 (configuration not stated) , what is its reported cytotoxicity at 10 µM?
Response: -101

Prompt: Given the compound `CNC(=O)c1ccc(S(=O)(=O)NCCc2ccccn2)cc1` , what is its reported cytotoxicity at 10 µM?
Response: -14.3

Prompt: Given the compound `CCN(CC)CCn1cc(NC(=O)Nc2ccccc2OC)cn1` , what is its reported cytotoxicity at 10 µM?
Response: 12.7

Prompt: Given the compound `Cn1ccnc1-c1nccn1-c1cccc(CN2CCCC2)c1` , what is its reported cytotoxicity at 10 µM?
Response: -2.36

Prompt: Given the compound `Cn1nc(C2CCN(CC(=O)NC3CC3)CC2)n(-c2ccccc2)c1=O` , what is its reported cytotoxicity at 10 µM?
Response: -22.3

Prompt: Given the compound `CC(=O)N(C)Cc1ccccc1NC(=O)c1cnn(C)c1C` , what is its reported cytotoxicity at 10 µM?
Response: 2.31

---

Assay: Toxicity liver stage against HepG2, at 10uM
Assay type: cell-based
Parameters: test concentration 10 uM, cell line HepG2-A16-CD81EGFP
Conditions: human, HepG2-A16-CD81EGFP cells; read-out: INHIBITION
Endpoint: cytotoxicity at 10 µM (%)
Provide the reading as a plain figure in %.

Prompt: Given the molecule `CCc1nc(CC)n(CC(=O)N(C)Cc2ccc(F)cc2)n1` , what is its reported cytotoxicity at 10 µM?
Response: 5.25

Prompt: Given the molecule CN1CCCC(N2CCN(c3cc(C(F)(F)F)ccn3)CC2)C1 (centres undefined) , what is its reported cytotoxicity at 10 µM?
Response: 5.12

Prompt: Given the molecule `Cc1nc2c(c(N[C@H](C(N)=O)C(C)C)n1)Cc1ccccc1OC2` , what is its reported cytotoxicity at 10 µM?
Response: 4.71

Prompt: Given the molecule `O=C(Cc1ccsc1)N1C[C@H]2CCC[C@@]2(COCc2ccccn2)C1` , what is its reported cytotoxicity at 10 µM?
Response: -102
